Measured values drawn from patent US20100111852A1 for this set.

Target: T1, human Claudin 3 (human, UniProt O15551 1-220)
T1 construct: forced expression in DG44 or Ba/F3 cells, or endogenous on MCF7 cells; four-transmembrane tight junction protein; also called hCLDN3; hCLN3
T1 sequence: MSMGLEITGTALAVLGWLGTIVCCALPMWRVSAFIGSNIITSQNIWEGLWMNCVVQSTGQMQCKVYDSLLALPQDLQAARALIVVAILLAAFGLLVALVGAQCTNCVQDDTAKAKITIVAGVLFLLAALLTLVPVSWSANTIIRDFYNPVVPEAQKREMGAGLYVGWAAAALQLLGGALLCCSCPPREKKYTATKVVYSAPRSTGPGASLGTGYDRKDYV
Test: flow cytometry, hCLDN3/DG44 cells, 5 ug/mL antibody
assay_readout: X geometric mean
In your answer, state the number alone without any accompanying words.

{"columns": ["binder", "X geometric mean"],
 "data": [
  ["CDN38 (antibody, V domains shown) VH: EVQLQQSGPELVKPGASVKMSCKASGYSFTGYFMNWVKQSHGKSLEWIGRINPYNGDTFYNQKFKGKATLTVDKSSSTAHMELRSLTSEDSALYYCARSGNYVMDYWGQGTSVTVSS VL: DIVLTQSPASLAVSLGQSVTISCRASESVEYYGTSLMQWYQQKPGQPPKLLIYGASNVESGVPARFSGSGSGTDFSLNIHPVEEDDIAMYFCQQSRKVPWTFGGGTKLEIKR", 258]
]}

Ask: Give the value of X geometric mean reported for the following: CDN27 (antibody, V domains shown, mouse monoclonal, IgG2a/IgK) VH: EVQLQQSGPELVKPGASVKISCKASGYSFTGYFMNWVKQSHGKSLEWIGRINPYNGDTFYNQKFKGKATLTVDKSSSTAHMELRSLTSEDSAVYYCARSGDWYFDVWGAGTTVTVSS VL: DIVLTQSPASLAVSLGQRATISCRASKSVSTSSYSYMHWYQQKPGQPPKLLIKFASYLESGVPARFSGSGSGTDFTLNIHPVEEEDAATYYCQHSREFPRTFGGGTKLEIKR
Result: 2700

Ask: Give the value of X geometric mean reported for the following: CDN04 (antibody, mouse IgG1, kappa, V domains shown, mouse monoclonal, IgG1/IgK; also called CDN4) VH: EVQLQQSGPELVKPGASMKISCKASGYSFTGYTMNWMKQGHGKNLEWIGLINPYNGGTSYNQKFKDKATLTLDKSSSSAYMELLSLTSEDSAVYYCARGSYGSSYFDYWGQGTTLTVSS VL: DIVMSQSPSSLAVSVGEKVTMSCKSSQSLLYGSNQKNYLAWYQQKPGQSPKLLIYWASTRESGVPDRFTGSGSGTDFTLTISSVKAEDLAVYYCQQYYNFPYTFGGGTKLEIKR
Result: 667

Ask: Give the value of X geometric mean reported for the following: CDN28 (antibody, mouse IgG1, kappa, V domains shown, mouse monoclonal, IgG1/IgK) VH: EVQLQQSGPELVKPGASVKISCKASGYSFTGYFMNWVKQSHGKSLEWLGRINPYNGDTFYNQKFKGKATLTVDKSSNTAHMELRSLTSEDSAVYYCARGDGYYVTSLAYWGQGTLVTVSA VL: NIVMTQSPKSMSMSVGERVTLSCKASENVVSYVSWFQQKPEQSPKLLIYGASNRYTGVPDRFTGSGSATDFTLTISSVQAEDLADYYCGQSYSYPLTFGAGTKLELKR
Result: 1990
